Consider the following pIC50 data for Tyrosine-protein kinase JAK3 (Homo sapiens, UniProt P52333), collected from several reports.
pIC50: −log10 of the molar value.
Reported endpoint: pIC50

- Molecule: "N#CCC[C@H]1CCC[C@H](Nc2c(C(=O)O)cnc3[nH]ccc23)C1"
  Test value: "6.00 to 7.00"
- Molecule: "O=c1[nH]cccc1Nc1ncc(F)c(N[C@@H]2CCCN(c3nnc[nH]3)C2)n1"
  Test value: "> 7.00"
- Molecule: "C=CC(=O)N1CCc2cc(Nc3nc(Nc4cccc(S(N)(=O)=O)c4)ncc3C)ccc2C1"
  Test value: "> 8.00"
- Molecule: "Fc1ccc2ncn(-c3ncc4nc(-c5cncnc5)n([C@@H]5CCOc6c(F)cccc65)c4n3)c2c1"
  Test value: "> 7.00"
- Molecule: "Cn1cc(-c2cc3nccn3c(-c3cnn(C4(CCF)CN(CC(F)(F)F)C4)c3)n2)cn1"
  Test value: "< 6.00"
- Molecule: "CNC/C=C/C(=O)N1CC[C@@H](n2nc(-c3ccc(C(=O)Nc4cc(C(F)(F)F)ccn4)cc3)c3c(N)ncnc32)C1"
  Test value: "< 5.00"
- Molecule: "Cc1ccc(NC(=O)c2cc(F)cc(C(F)(F)F)c2)cc1-c1ccc2c(c1)[nH]c1ncncc12"
  Test value: "≥ 6.30"
- Molecule: "CC1(C)CC(n2c(=O)[nH]c3cnc(-c4cnc5ccc(F)cn45)nc32)c2cccnc2O1 (stereo not drawn)"
  Test value: "6.00 to 7.00"
- Molecule: "CCOC(C)n1cc(-c2nc(-c3cnn(C)c3)cn3nccc23)cn1 (stereo not drawn)"
  Test value: "5.00 to 6.00"
- Molecule: "Cc1cccc(NC(=O)c2ccc(Oc3ccnc4[nH]nc(N[C@@H]5CCCN(C(=O)C6(C)CCOCC6)C5)c34)cc2)n1"
  Test value: "< 5.00"
- Molecule: "C=CC(=O)Nc1cccc(Nc2nc(Nc3cccc(OC(F)(F)F)c3)ncc2F)c1"
  Test value: "> 8.00"
- Molecule: "O=C(NCCC(F)(F)F)c1onc2c1CN(c1ncnc3[nH]ccc13)CC21CC1"
  Test value: "> 7.00"

----------
pIC50: −log10 of the molar value.
Consider the following pIC50 data for UniProtKB P52333, collected from several reports.

- Compound: "CN(C)C/C=C/C(=O)Nc1cccc(Nc2cc(Nc3ccccc3)ncn2)n1"
  pIC50: "≥ 8.00"
- Compound: "N#CCC1(n2cc(-c3nc(-c4cnn(C5COC5)c4)cc4nccn34)cn2)CN(CC(F)(F)F)C1"
  pIC50: "< 6.00"
- Compound: "N#CCC(C1CC1)n1cc(-c2nc(-c3cnco3)cc3nccn23)cn1 (centres unmarked)"
  pIC50: "< 6.00"
- Compound: "C/C=C/C(=O)Nc1cccc(Nc2cc(Nc3cccc(Br)c3)ncn2)c1"
  pIC50: "5.00 to 6.00"
- Compound: "CCOCCC(C1CCC1)n1cc(-c2nc(-c3cnn(C)c3)cc3nccn23)cn1 (centres unmarked)"
  pIC50: "< 6.00"
- Compound: "CCOC(=O)Cn1cc(Nc2ncc3ccn(CC4CCCCC4(F)F)c3n2)cn1 (centres unmarked)"
  pIC50: "> 7.00"
- Compound: "O=c1[nH]cccc1Nc1nccc(N[C@H]2CC[C@H](CS(=O)(=O)N3CCCC(O)C3)CC2)n1 (relative stereo)"
  pIC50: "6.00 to 7.00"
- Compound: "CN(c1ncc(F)cc1CNc1nc(-c2cc(F)c(O)cc2CC(F)(F)F)cc2[nH]nc(C(N)=O)c12)S(C)(=O)=O"
  pIC50: 7.05

----------
Consider the following pIC50 data for Tyrosine-protein kinase JAK3 (Homo sapiens, UniProt P52333), collected from several reports.
pIC50: −log10 of the molar value.
Reported endpoint: pIC50

- Molecule: "CCC(CC)n1cc(-c2nc(-c3cnn(CC(C)(O)CO)c3)cn3nccc23)cn1 (centres unmarked)"
  Test value: "5.00 to 6.00"
- Molecule: "CC(C)(C)NS(=O)(=O)c1cccc(N2CCc3cnc(Nc4ccc(N5CCOCC5)cc4)nc32)c1"
  Test value: 5.81
- Molecule: "C=CC(=O)N1CCC[C@H]1Cn1nc(-c2ccc(Oc3ccccc3)cc2)c2cncc(F)c21"
  Test value: "< 6.30"
- Molecule: "Cn1cc(-c2cc3nccn3c(-c3cnn(C4(CC#N)CC5(COC5)C4)c3)n2)cn1"
  Test value: "< 6.00"
- Molecule: "C=CC(=O)N1CC(CNc2nc(Nc3cccs3)nc3ccsc23)C1"
  Test value: "7.00 to 8.00"

----------
Consider the following IC50 data for Tyrosine-protein kinase JAK3 (Homo sapiens, UniProt P52333), collected from several reports.

- Compound: "Cc1ccc(NC(=O)c2cccc(S(F)(F)(F)(F)F)c2)cc1-c1ccc2c(c1)[nH]c1ncncc12"
  IC50: "≤ 500 nM"
- Compound: "CCC(CC)n1cc(-c2nc(-c3cnn(C[C@H](O)CO)c3)cn3nccc23)cn1"
  IC50: "1000 to 10000 nM"
- Compound: "C=CC(=O)Nc1cccc(Oc2nc(Nc3ccc(CC(=O)NC4CCN(C)CC4)cc3)nc3ccsc23)c1"
  IC50: "≤ 50 nM"
- Compound: "CCC(CC)n1cc(-c2nc(-c3cnn(C4CN(C(=O)C(C)C)C4)c3)cn3nccc23)cn1"
  IC50: "1000 to 10000 nM"
- Compound: "COc1ccccc1-c1cc2c(NC3C4CC5CC3CC(O)(C5)C4)c(C(N)=O)cnn2c1 (centres unmarked)"
  IC50: "1 nM"
- Compound: "CC(Cl)C(=O)Nc1cccc(-c2cnc3ccccc3n2)c1 (centres unmarked)"
  IC50: "330 nM"
- Compound: "CC(O)Cn1cnc2cc(Nc3ncc(Cl)c(NC4CCN(c5ccc(C#N)cn5)CC4)n3)ccc21 (centres unmarked)"
  IC50: "5 nM"
- Compound: "N#Cc1ccc2ncn(-c3ncc4nc(Nc5cccc(C(F)(F)F)c5)n([C@@H]5CCOc6ccccc65)c4n3)c2c1"
  IC50: "100 to 1000 nM"
- Compound: "CCC(=O)c1cnc(Nc2ccc([C@@H](C)N3CC(O)C3)cn2)cc1Nc1cccc(-c2ncn(C)n2)c1OC"
  IC50: "≥ 500 nM"
- Compound: "COc1nccc(-c2cnc3[nH]ccc3c2N[C@@H]2CCCN(C(=O)CC#N)C2)n1"
  IC50: "10 to 100 nM"
- Compound: "CCOC(=O)c1ccc(Nc2ncc3ccn(CC(CC)CC)c3n2)cc1"
  IC50: "100 to 1000 nM"

----------
Consider the following IC50 data for Tyrosine-protein kinase JAK3 (Homo sapiens, UniProt P52333), collected from several reports.

- Smiles notation: "CNCCNC(=O)Cc1ccc(Nc2ncc3ccn(-c4cccc(NS(=O)(=O)C(C)(C)C)c4)c3n2)cc1"
  IC50: "253 nM"
- Smiles notation: "CN1CCN(Cc2ccc(Nc3ncc4c(n3)N(c3cccc(S(=O)(=O)NC(C)(C)C)c3)CC4)cc2)CC1"
  IC50: "879 nM"
- Smiles notation: "C=CC(=O)Nc1cccc(Nc2nc(Nc3ccc(F)cc3)ncc2F)c1"
  IC50: "< 10 nM"
- Smiles notation: "C[C@]1(O)CC[C@@H](Nc2c(C(N)=O)cnn3cc(-c4ccccc4C(N)=O)cc23)CC1"
  IC50: "33.6 nM"
- Smiles notation: "O=C(c1ccccc1F)c1c[nH]c2nccc(-c3ccccc3F)c12"
  IC50: "≤ 10000 nM"

----------
pIC50: −log10 of the molar value.
Consider the following pIC50 data for Tyrosine-protein kinase JAK3 (Homo sapiens, UniProt P52333), collected from several reports.

- Smiles notation: "CCC(=O)c1cnc(Nc2ccc([C@H](C)N3CC4(COC4)C3)cn2)cc1Nc1cccc(-c2ncn(C)n2)c1OC"
  pIC50: "≤ 6.30"
- Smiles notation: "Cc1cnc2nc1Nc1cccc(c1)CCNC(=O)c1c(F)cc(cc1F)-c1cnc(F)c(c1)N2"
  pIC50: "5.00 to 6.00"
- Smiles notation: "CN(C)C(=O)N1CCC[C@@H](Nc2n[nH]c3nccc(Oc4ccc(C(=O)Nc5ccccn5)cc4)c23)C1"
  pIC50: "< 5.00"
- Smiles notation: "CN(c1ncnc2[nH]ccc12)C1CC2(C1)CN(C(=O)c1ccc(C(F)(F)F)cc1)C2"
  pIC50: "≤ 5.00"
- Smiles notation: "C=CC(=O)N[C@H]1CC[C@H](n2nc(-c3ccc(C(=O)Nc4cc(C)ccn4)cc3)c3c(N)ncnc32)CC1"
  pIC50: "< 5.00"
- Smiles notation: "C=CC(=O)Nc1cccc(Oc2nc(Nc3ccc(S(=O)(=O)NCCN(C)C)cc3)nc3ccsc23)c1"
  pIC50: "≥ 7.30"
- Smiles notation: "C[C@H]1C[C@@H](Nc2c(-c3nncs3)cnc3[nH]ccc23)CN(C(=O)CC#N)C1"
  pIC50: "≥ 8.00"
- Smiles notation: "C=CC(=O)Nc1cccc(Sc2nc(Nc3ccc(N4CCN(C)CC4)cc3)nc3ccsc23)c1"
  pIC50: "≥ 7.30"
- Smiles notation: "O=c1[nH]c2c(Oc3ccncc3)nc(-n3cnc4ccc(F)cc43)nc2n1C1CCOCC1"
  pIC50: "> 7.00"
- Smiles notation: "Cc1cnc2nc1NCCCCCNC(=O)c1ccc(cc1C(=O)NCc1ccccc1)-c1cnc(F)c(c1)N2"
  pIC50: "5.00 to 6.00"
